system: Plasmodium falciparum; assay: Antimalarial activity against chloroquine-,pyrimethamine-resistant Plasmodium falciparum W2 assessed as inhibition of [3H]hypoxanthine incorporation after 96 hrs by microtiter plate scintillation counting; format: functional, organism-based
readout-label: IC50

• CC[C@H]1OC(=O)[C@H](C)[C@@H](O[C@H]2C[C@@](C)(OC)[C@@H](O)[C@H](C)O2)[C@H](C)[C@@H](O[C@@H]2O[C@H](C)C[C@H](N(C)C)[C@H]2O)[C@](C)(O)C[C@@H](C)CN(CCCNC(=S)Nc2sc3c(c2C(=O)OC)CCCC3)[C@H](C)[C@@H](O)[C@]1(C)O = 229 nM
• CC[C@H]1OC(=O)[C@H](C)[C@@H](O[C@H]2C[C@@](C)(OC)[C@@H](O)[C@H](C)O2)[C@H](C)[C@@H](O[C@@H]2O[C@H](C)C[C@H](N(C)C)[C@H]2O)[C@](C)(O)C[C@@H](C)CN(CCCNC(=O)Nc2c(C)noc2-c2ccccc2)[C@H](C)[C@@H](O)[C@]1(C)O = 734 nM

* * *

system: Plasmodium falciparum; assay: Antimalarial activity against chloroquine-,pyrimethamine-resistant Plasmodium falciparum W2 assessed as inhibition of [3H]hypoxanthine incorporation after 96 hrs by microtiter plate scintillation counting; type: functional, organism-based
Reported IC50 values are given for each entry in this list.
readout-label: IC50 (nM)

- CC[C@H]1OC(=O)[C@H](C)[C@@H](O[C@H]2C[C@@](C)(OC)[C@@H](O)[C@H](C)O2)[C@H](C)[C@@H](O[C@@H]2O[C@H](C)C[C@H](N(C)C)[C@H]2O)[C@](C)(O)C[C@@H](C)CN(CCCNC(=S)Nc2ccc(OC)cc2)[C@H](C)[C@@H](O)[C@]1(C)O: 77
- CC[C@H]1OC(=O)[C@H](C)[C@@H](O[C@H]2C[C@@](C)(OC)[C@@H](O)[C@H](C)O2)[C@H](C)[C@@H](O[C@@H]2O[C@H](C)C[C@H](N(C)C)[C@H]2O)[C@](C)(O)C[C@@H](C)CN(CCCNC(=O)Nc2cc(C)oc2C(F)(F)F)[C@H](C)[C@@H](O)[C@]1(C)O: 310
- CC[C@H]1OC(=O)[C@H](C)[C@@H](O[C@H]2C[C@@](C)(OC)[C@@H](O)[C@H](C)O2)[C@H](C)[C@@H](O[C@@H]2O[C@H](C)C[C@H](N(C)C)[C@H]2O)[C@](C)(O)C[C@@H](C)CN(CCCNC(=O)Nc2cc(F)ccc2C)[C@H](C)[C@@H](O)[C@]1(C)O: 53.2
- CC[C@H]1OC(=O)[C@H](C)[C@@H](O[C@H]2C[C@@](C)(OC)[C@@H](O)[C@H](C)O2)[C@H](C)[C@@H](O[C@@H]2O[C@H](C)C[C@H](N(C)C)[C@H]2O)[C@](C)(O)C[C@@H](C)CN(CCCNC(=O)Nc2ccc3c(c2)OCCCO3)[C@H](C)[C@@H](O)[C@]1(C)O: 40.8

* * *

Reported IC50 values are given for each entry in this list.
test system: Plasmodium falciparum; assay: Antimalarial activity against chloroquine-sensitive Plasmodium falciparum D6 assessed as inhibition of [3H]hypoxanthine incorporation after 96 hrs by microtiter plate scintillation counting; assay type: functional, organism-based
readout-label: IC50

• CC[C@H]1OC(=O)[C@H](C)[C@@H](O[C@H]2C[C@@](C)(OC)[C@@H](O)[C@H](C)O2)[C@H](C)[C@@H](O[C@@H]2O[C@H](C)C[C@H](N(C)C)[C@H]2O)[C@](C)(O)C[C@@H](C)CN(CCCNC(=S)NC2CCCCCCCCCCC2)[C@H](C)[C@@H](O)[C@]1(C)O = 0.265 µM
• CC[C@H]1OC(=O)[C@H](C)[C@@H](O[C@H]2C[C@@](C)(OC)[C@@H](O)[C@H](C)O2)[C@H](C)[C@@H](O[C@@H]2O[C@H](C)C[C@H](N(C)C)[C@H]2O)[C@](C)(O)C[C@@H](C)CN(CCCNC(=O)NC2CCCC2)[C@H](C)[C@@H](O)[C@]1(C)O = 6.02 µM
• CC[C@H]1OC(=O)[C@H](C)[C@@H](O[C@H]2C[C@@](C)(OC)[C@@H](O)[C@H](C)O2)[C@H](C)[C@@H](O[C@@H]2O[C@H](C)C[C@H](N(C)C)[C@H]2O)[C@](C)(O)C[C@@H](C)CN(CCCNC(=S)N[C@H]2CCCC[C@H]2OCc2ccccc2)[C@H](C)[C@@H](O)[C@]1(C)O = 0.645 µM
• CC[C@H]1OC(=O)[C@H](C)[C@@H](O[C@H]2C[C@@](C)(OC)[C@@H](O)[C@H](C)O2)[C@H](C)[C@@H](O[C@@H]2O[C@H](C)C[C@H](N(C)C)[C@H]2O)[C@](C)(O)C[C@@H](C)CN(CCCNC(=S)Nc2ccc(C#N)cc2)[C@H](C)[C@@H](O)[C@]1(C)O = 0.132 µM
